# Tested on: TRPC4 beta (transient receptor potential cation channel C4), mouse
# assay_details: potentiation of DAMGO EC20 TRPC4 response – cell-based, Fluo-4, HEK293 TRPC4beta/mu-opioid, confirmation (AID 2555)
# protocol_conditions: DAMGO EC20, Fluo-4 calcium flux, at 10 µM
Active and inactive are the calls of the source.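 The calls were made as follows: active = primary screen hit whose calcium fluorescence ratio, in both repeats, exceeds the weak agonist control mean by 3 SD; inactive = the rest.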
A correct response names exactly one class from yes (1) for active, no (0) for inactive

Below, 3 molecules whose answers are already recorded.
molecule=c1ccc(C2(CN3CCNC[C@H]3Cc3cccc4ccccc34)CC2)cc1 assigned_class="no (0)"
molecule="COc1ccc(/C=N/NC(=O)c2ccc(F)cc2)cc1CN1CCc2cc(OC)c(OC)cc2C1C (stereo not drawn)" assigned_class="no (0)"
molecule=O=C1Cc2ccccc2Sc2c(OCCN3CCCCC3)cccc21 assigned_class="no (0)"

Answer briefly: the call reported for O=Cc1cc(N=Nc2ccccc2Cl)ccc1O in this assay.
no (0)

Now this one: CN(CC(=O)Nc1ccc(F)cc1)C(=O)COC(=O)C1CCN(c2ccc(C(F)(F)F)cn2)CC1
no (0)

Queued: CC(=O)OCC1O[C@@H](O[C@@H]2C[C@H]3C(C)(C)[C@H](OC(C)=O)CC[C@]3(C)[C@H]3CC[C@]45C[C@]4(CC[C@H]5[C@@H](C)C[C@@H](O)[C@H](O)C(C)(C)O)[C@@]32C)[C@H](O)[C@@H](O)[C@@H]1O (stereo partly drawn)
no (0)
